Assay: chemical genetic growth profiling, strain panel (AID 1159580);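 note: tested at 20 µM; growth read once vehicle control cultures reached saturation at 30 °C; 1 = growth at the plate median or of vehicle wells; lower values mean less growth of the strain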
Conditions: S. cerevisiae deletion strains, growth OD, locus YNL224C, strain SQS1, hits give low values
In all, about 5,500 compounds went through this assay and about 2,000 (36%) were called active. Another 18% or so got no clear call; they are omitted. The list shows a part of the results.
# normalized growth annotations

[
  {
    "Molecule": "Fc1ccc(CN(C2=NCCN2)c2c(Cl)cccc2Cl)cc1",
    "Readout Type": "normalized growth",
    "Reported Value": "1.01 (inactive)"
  },
  {
    "Molecule": "O=c1n(CCCN2CCN(c3cccc(Cl)c3)CC2)nc2ccccn12",
    "Readout Type": "normalized growth",
    "Reported Value": "0.998 (inactive)"
  },
  {
    "Molecule": "CCOC(=O)c1ncn2c1[C@@H]1CCCN1C(=O)c1cc(OC)ccc1-2",
    "Readout Type": "normalized growth",
    "Reported Value": "1.01 (inactive)"
  },
  {
    "Molecule": "CC12CCC3C(CCC4=C(O)C(=O)CCC43C)C1CCC2=O (stereo not given)",
    "Readout Type": "normalized growth",
    "Reported Value": "0.969 (inactive)"
  },
  {
    "Molecule": "COc1cccc2c1[C@@H]1CN(CCCCn3c(=O)[nH]c4c(sc5ncc(-c6ccccc6)nc54)c3=O)C[C@@H]1CO2",
    "Readout Type": "normalized growth",
    "Reported Value": "1 (inactive)"
  }
]

[in] Can you look up the measured normalized growth of C[C@]12C=CC(=O)C=C1CC[C@H]1[C@@H]3C[C@@H](O)[C@](O)(C(=O)CO)[C@@]3(C)C[C@H](O)[C@@]12F for me?
[out] 1.01 (inactive)

[in] Value lookup for normalized growth; key = O=c1[nH]c2ccccc2n1CCCN1CCC(n2c(=O)[nH]c3cc(Cl)ccc32)CC1
[out] 1 (inactive)
